Each item that follows carries a reported Percent Effect.
- Test system: Wolbachia pipientis
- test.summary: Anti-Wolbachia Cell-Based Screen
- Format: functional
- Set-up: scale not given: in the data most compounds retested in dose-response had high values
- assay.setup: 5 µM
In all, about 48,000 compounds went through this assay and about 13,000 (27%) showed an effect of 50% or more. The list shows a part of the results.
measurement.kind: Percent Effect

INSERT INTO measurements (compound, observed_measurement) VALUES
  ('CC(C)c1cccc(CSc2nnc(Cn3cncn3)o2)n1', '-1.93%'),
  ('O=C(NCc1ccncc1)N(Cc1ccccc1F)C1CC1', '1.311%'),
  ('Cc1ccc(C(=O)NCCCC2(C3OCCO3)CCOCC2)cc1C', '-3.842%'),
  ('CC(=O)Nc1nc(C(=O)NCCOc2ccc(C)cc2)cs1', '-6.104%'),
  ('COCC1CN(C(=O)CNC(C)=O)Cc2ncnn2C1 (configuration not stated)', '6.87%'),
  ('CS(=O)(=O)N1CCCCCC1C1CCN(Cc2nc(C3CC3)no2)CC1 (configuration not stated)', '-7.435%'),
  ('CC(=O)Nc1nc(C(=O)Nc2ccc(F)cc2)cs1', '-0.1776%'),
  ('CC(=O)Nc1nc(C(=O)NC(C)c2ccc(F)cc2)cs1 (configuration not stated)', '33.73%'),
  ('CC(=O)Nc1nc(C(=O)NC(C)c2ccc(C#N)cc2)cs1 (configuration not stated)', '80.7%'),
  ('CC(=O)Nc1nc(C(=O)NC(C)c2ccc3c(c2)OCCO3)cs1 (configuration not stated)', '7.281%'),
  ('COc1ccc(OC)c(CCNc2ncc(S(N)(=O)=O)s2)c1', '-19.79%'),
  ('CC(=O)Nc1nc(C(=O)NC(C)c2ccc(F)c(F)c2)cs1 (configuration not stated)', '54.27%');

* * *

- System: Wolbachia pipientis
- test.summary: Anti-Wolbachia Cell-Based Screen
- Assay type: functional
- Parameters: scale not given: in the data most compounds retested in dose-response had high values
- assay.setup: 5 µM
The campaign covered roughly 48,000 compounds. About 13,000 (27%) showed an effect of 50% or more. The list shows a part of the results.
measurement.kind: Percent Effect (%)

INSERT INTO measurements (molecule, measurement_kind, result_unit, observed_measurement) VALUES
  ('O=C(O)C(F)(F)F.O=C(O)C(F)(F)F.O=C(O)C(F)(F)F.O=C(O)C(F)(F)F.c1ccc(CN2CCc3c(COCc4ccncc4)cncc3C2)nc1', 'Percent Effect', '%', 100.9),
  ('Cc1nc(N(C)C/C=C/c2ccccc2)c2cnn(C)c2n1', 'Percent Effect', '%', 1.614),
  ('COc1nccc(N2CCN(Cc3ccc(C)cc3)C(=O)C2)c1C#N', 'Percent Effect', '%', 5.242),
  ('CN(C)S(=O)(=O)N1CCCC1c1cccc(-n2ccnc2)n1 (stereo not given)', 'Percent Effect', '%', 119.1),
  ('CN(C)S(=O)(=O)CCCOc1cccc(-n2ccnc2)c1', 'Percent Effect', '%', -3.335),
  ('O=C(O)C(F)(F)F.O=C(O)C(F)(F)F.O=C(O)C(F)(F)F.c1cncc(COCc2cncc3c2CCN(Cc2ccoc2)C3)c1', 'Percent Effect', '%', 108.7),
  ('CCNC(=O)NC(=O)CNc1cc(C(=O)OC)cc(C(F)(F)F)c1', 'Percent Effect', '%', -3.63),
  ('c1ccc(C(c2ccccc2)N2CCN(CCn3cncn3)CC2)cc1', 'Percent Effect', '%', 0.8212),
  ('CN(CC1Cc2ccccc2CN1C)C(=O)CSc1ccccn1 (stereo not given)', 'Percent Effect', '%', 0.2013),
  ('CN(C)S(=O)(=O)N1CCCC1CC(=O)c1cccs1 (stereo not given)', 'Percent Effect', '%', -13.45);
